system: PC-3; test: NCI tumour cell line growth inhibition, 48 h
Activity calls are given as the source filed them. No stated cut-off is given here; in the data, active = GI50 up to about 1.1 µM and inactive = higher. Square brackets hold non-standard residues; d marks the D form. Peptide text beside a SMILES is read from it.
Please state which outcome applies, choosing from True = active, False = inactive

Qu. Can you look up the reported call for COc1ccc2c3c(ccc2c1)NC(C(=O)O)CC3 (configuration not stated) for me?
Ans. False

Qu. Can you look up the reported call for NC(=O)c1c[se]c(C2OC(CO)C(O)C2O)n1 (configuration not stated) for me?
Ans. False

Qu. Can you look up the reported call for COc1ccc(C2c3cc4c(c(OC)c3CC3OCC(=O)C32)OCO4)cc1OC (configuration not stated) for me?
Ans. True

Qu. Can you look up the reported call for N=C(N)NCCC[C@H]1NC(=O)[C@@H](CCC(=O)O)NC(=O)[C@@H](CC(=O)O)NC(=O)[C@@H](CCC(=O)O)NC(=O)[C@H](Cc2c[nH]c3ccccc23)NC1=O (cyclo(W[dE][dD][dE][dR])) for me?
Ans. True

Qu. Can you look up the reported call for S=C(N/N=C(/c1ccccc1)c1ccccn1)N1CCCCCC1 for me?
Ans. True

Qu. Can you look up the reported call for O=S1(=O)c2ccccc2N2C(c3ccccc3)=NOC2(c2ccccc2)CC1c1ccc(Br)cc1 (configuration not stated) for me?
Ans. False

Qu. Can you look up the reported call for COc1ccc(C(=O)N2CCc3c([nH]c4ccccc34)C2C(=O)O)o1 (configuration not stated) for me?
Ans. False
